- Test system: Saccharomyces cerevisiae
- assay notes: Antifungal activity against Saccharomyces cerevisiae (strain YPH98)
- Type: functional, organism-based
measurement type: log10(IC50) (log10 of the value in ng/mL)
Note: values are log10 of IC50 expressed in ng/mL.

// below: answered compounds
compound	target system	value
CCOC[C@]12CC3C(C)CCC3[C@@]3(C#N)CC1C=C(C(C)C)[C@@]23C(=O)O (stereo partly specified)	Saccharomyces cerevisiae	2.70
CC(C)C1=CC2C[C@]3(C#N)C4CCC(C)C4C[C@]2(CO)[C@]13C(=O)O (stereo partly specified)	Saccharomyces cerevisiae	4.30

get_value(item= CC(C)COC[C@]12CC3C(C)CCC3[C@@]3(C#N)CC1C=C(C(C)C)[C@@]23C(=O)O (stereo partly specified) , readout=log10(IC50)) returns 1.48

get_value(item= CC(C)CCOC[C@]12CC3C(C)CCC3[C@@]3(C#N)CC1C=C(C(C)C)[C@@]23C(=O)O (stereo partly specified) , readout=log10(IC50)) returns -2.00

get_value(item= `CO[C@H]1[C@@H](O)[C@H](O)[C@H](OC[C@@]23C[C@@H]4[C@H](C)CC[C@H]4[C@@]4(C=O)CC2C=C(C(C)C)[C@@]34C(=O)O)O[C@@H]1C` , readout=log10(IC50)) returns 4.00

get_value(item= CCCCOC[C@]12CC3C(C)CCC3[C@@]3(C#N)CC1C=C(C(C)C)[C@@]23C(=O)O (stereo partly specified) , readout=log10(IC50)) returns 1.48

get_value(item= CCCCCCOC[C@]12CC3C(C)CCC3[C@@]3(C#N)CC1C=C(C(C)C)[C@@]23C(=O)O (stereo partly specified) , readout=log10(IC50)) returns -0.52

get_value(item= CCCOC[C@]12CC3C(C)CCC3[C@@]3(C=O)CC1C=C(C(C)C)[C@@]23C(=O)O (stereo partly specified) , readout=log10(IC50)) returns 1.78

get_value(item= CCCCCCOC[C@]12CC3C(C)CCC3[C@@]3(C=O)CC1C=C(C(C)C)[C@@]23C(=O)O (stereo partly specified) , readout=log10(IC50)) returns 1.18
